- tested_system: SCD5 (Homo sapiens)
- Construct: host or cells: S. cerevisiae ole1Δ strain (W303 pdr1Δ pdr3Δ background), plasmid pRS316 with TDH3 promoter and CYC1 terminator
- Sequence (Q86SK9 whole entry): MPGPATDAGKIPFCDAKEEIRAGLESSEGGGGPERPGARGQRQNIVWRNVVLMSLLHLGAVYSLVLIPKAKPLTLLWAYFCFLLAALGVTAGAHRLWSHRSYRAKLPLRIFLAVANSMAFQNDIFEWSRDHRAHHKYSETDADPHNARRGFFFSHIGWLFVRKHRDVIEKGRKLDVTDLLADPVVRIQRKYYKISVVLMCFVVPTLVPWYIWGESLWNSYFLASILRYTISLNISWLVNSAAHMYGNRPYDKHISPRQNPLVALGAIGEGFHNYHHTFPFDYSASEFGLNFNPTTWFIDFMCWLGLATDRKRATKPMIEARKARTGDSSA
- assay_method_text: Growth inhibition of humanized yeast strain expressing SCD5 as sole desaturase
- Type: cell-based
- assay_setup: humanized yeast strain expressing SCD5
- Description: Strain oleΔ (yeast ole1 deletion mutant) was constructed by deleting OLE1 with NAT-MX6 in BY4741, amplifying the deletion cassette from the genomic DNA of the resulting strain with primers flanking the ORF by 1000 bp upstream and downstream, transforming the resulting deletion cassette into W303 pdr1Δ pdr3Δ, and plating transformants on YPD media containing G418 (200 μg/mL) and nourseothricin ([…]) with 0.01% TWEEN®-20 and 0.5 mM oleic and palmitoleic acids. […]
pIC50: −log10 of the molar value.
measurement_label: pIC50

Examples with answers:
CC(C)c1cccc(C(=O)N2CCC(c3nc(-c4ccc5cnn(C)c5c4)no3)CC2)c1 [Compound 205]
< 4.35
Cc1ccc(N2C[C@@H](C(=O)N3CCC(c4nc(-c5ccc6c(C)nn(C)c6c5)no4)CC3)CC2=O)nc1 [Compound 302]
< 4.35
Cc1nn(C)c2cc(-c3noc(C4CCN(C(=O)CNC(=O)c5ccccn5)CC4)n3)ccc12 [Compound 153]
< 4.35
Cc1nn(C)c2cc(-c3noc(C4CCN(c5nc(C(C)C)no5)CC4)n3)ccc12 [Compound 581]
< 4.35
CC(=O)N[C@H]1CC[C@H](c2nc(-c3ccc4cnn(C(C)C)c4c3)no2)CC1 [Compound 535]
< 4.35
Cn1c(=O)n(C)c2cc(-c3noc(C4CCN(C(=O)C5CC(=O)N(c6ccccc6)C5)CC4)n3)ccc21 (stereo not shown) [Compound 123]
< 4.35
Cc1nn(C)c2cc(-c3noc(N4CCN(C(=O)c5cc(F)ccc5C(F)(F)F)CC4)n3)ccc12 [Compound 293]
< 4.35
CC(C)n1ncc2ccc(N3CC4(CCN(C(=O)c5ccccc5Cl)CC4)C3)cc21 [Compound 534]
4.43
Cc1nn(C)c2cc(-c3noc(C4CCN(c5nc6ccccc6o5)CC4)n3)ccc12 [Compound 514]
< 4.35
Cc1nn(C)c2cc(-c3noc(C4CCN(C(=O)c5ccc(C(C)C)cc5)CC4)n3)ccc12 [Compound 290]
< 4.35

For every item in the list below, what is its measured pIC50?
1. CC(C)n1ncc2ccc(-c3noc(C4CCN(C(=O)c5ccsc5Cl)CC4)n3)cc21 [Compound 575]
2. Cc1nn(C)c2cc(-c3noc(C4CCN(C(=O)c5ccccc5Cl)CC4)n3)ccc12 [Compound 288]

5.33
< 4.35

For every item below, please supply its pIC50.
1. CCOc1ccc(-c2noc(N3CCC(C(=O)N4CCOC(c5ccccc5)C4)CC3)n2)cc1OC (stereo not shown) [Compound 112]
2. O=C(C1CC(=O)N(c2cccc(Cl)c2)C1)N1CCC(c2nc(-c3cnn(C4COC4)c3)no2)CC1 (stereo not shown) [Compound 340]
3. COc1ccc(S(=O)(=O)N2CCC(c3nc(-c4ccc5cnn(C(C)C)c5c4)no3)CC2)c(Br)c1 [Compound 539]

< 4.35
< 4.35
< 4.35
